Data origin, for the record: patent US20230295324A1

TGT: T1, cynomolgus monkey OX40 protein (Novoprotein, #CB17) (cynomolgus monkey)
T1 construct: Bought recombinant protein; also called cyno OX40
PROTOCOL: ELISA, coated cyno OX40 protein
ENDPOINT: EC50 (nM)
Entry rule: numbers only, all in nM.

Field: example entries. Status: answers known.
BINDER	RECORDED_VALUE
PR002071 (antibody, human IgG1, V domains shown, no light chain; also called anti-OX40 HCAb antibody) VH: EVQLVESGGGLVQPGGSLRLSCAASGFTFSSYAMSWVRQAPGKGLEWVSAISGGGGSIFYADSVRGRFTISRDNSKNTLYLQMNSLRAEDTAVYYCANGMTGTTDVDYWGQGTLVTVSS	0.202
PR002055 (antibody, human IgG1, V domains shown, no light chain; also called anti-OX40 HCAb antibody) VH: EVQLLESGGGLVQPGGSLRLSCAASGLTFSSYAMSWVRQAPGKGLEWISAISGGGGSTYYADSVRGRFTISRDNSKNTLYLQMNSLRAEDTAVYYCANGMTGSTDVDYWGQGTLVTVSS	0.0452
PR002066 (antibody, human IgG1, V domains shown, no light chain; also called anti-OX40 HCAb antibody) VH: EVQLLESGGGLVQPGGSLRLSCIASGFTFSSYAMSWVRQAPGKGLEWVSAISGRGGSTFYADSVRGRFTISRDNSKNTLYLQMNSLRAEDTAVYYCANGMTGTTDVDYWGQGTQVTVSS	0.37
PR002062 (antibody, human IgG1, V domains shown, no light chain; also called anti-OX40 HCAb antibody) VH: EVQLLESGGGLVQPGGSLRLSCAASGFTFSSYAMSWVRQAPGKGQEWVSAISGSGGSTFYADSVRGRFTISRDNSKNTLYLQMSSLRAEDTAVYYCANGMTGTTDVDYWGQGTLVTVSS	0.126
Pogalizumab analog (PR003475) (antibody, human IgG1, kappa, V domains shown, Conventional IgG antibody; also called Tab) VH: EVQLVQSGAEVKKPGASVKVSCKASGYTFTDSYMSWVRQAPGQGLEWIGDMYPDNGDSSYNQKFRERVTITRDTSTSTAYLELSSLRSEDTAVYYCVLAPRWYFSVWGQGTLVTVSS VL: DIQMTQSPSSLSASVGDRVTITCRASQDISNYLNWYQQKPGKAPKLLIYYTSRLRSGVPSRFSGSGSGTDFTLTISSLQPEDFATYYCQQGHTLPPTFGQGTKVEIKR	0.194

Data point: PR002076 (antibody, human IgG1, V domains shown, no light chain; also called anti-OX40 HCAb antibody) VH: EVQLLESGGGLVQPGGSLRLSCAASGFTFSSYAMSWVRQAPGKGLEWVSAISGSGGNTYYADSVRGRFTISRDNSKNTLYLQMNSLRAEDTAVYYCANGMTGTTDVDYWGQGTRVTVSS ; EC50 = 0.116

Data point: PR002058 (antibody, human IgG1, V domains shown, no light chain; also called anti-OX40 HCAb antibody) VH: EVQLLESGGGLVQPGGSLRLSCAASGFTFSSYAMSWVRQAPGKGLEWVSAISGGSGSTFYADSVRGRFTISRDNSKNTLYLQMNSLRAEDTAVYYCADGVTGTDFDFWGQGTLVTVSS ; EC50 = 0.0597

Data point: PR002063 (antibody, human IgG1, V domains shown, no light chain; also called anti-OX40 HCAb antibody) VH: EVQLLESGGGLVQPGGSLRLSCAASGFTFSSYAMSWVRQAPGRGLEWVSAISGGGGSTFYADSVRGRFTISRDNSKNTLYLQMSSLRAEDTAVYYCANGMTGTTDVDYWGQGTRVTVSS ; EC50 = 0.276
